Tested System: NAD(P)H dehydrogenase [quinone] 1 (Homo sapiens) (UniProt P15559)
Sequence (P15559 whole entry): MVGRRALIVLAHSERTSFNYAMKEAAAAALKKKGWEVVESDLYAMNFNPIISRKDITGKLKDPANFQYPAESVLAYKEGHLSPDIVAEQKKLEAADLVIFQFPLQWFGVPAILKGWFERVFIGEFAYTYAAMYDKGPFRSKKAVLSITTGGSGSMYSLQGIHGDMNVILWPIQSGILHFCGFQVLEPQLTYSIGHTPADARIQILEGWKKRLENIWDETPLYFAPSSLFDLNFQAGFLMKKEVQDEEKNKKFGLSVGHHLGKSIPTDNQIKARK
Assay Text: Activity of NQO1 (unknown origin) assessed as reduction of cytochrome c at 5 to 15 uM in the presence of superoxide dismutase and 150 to 200 uM of NADPH
The source made the active and inactive calls. The rule behind the calls is not given here.
Readout Type: Activity

Smi	Readout Value
O=C1C(=O)c2c(nc3ccc(F)cn23)-c2ccccc21	inactive
O=C1C(=O)c2c(nc3ccc(Cl)cn23)-c2ccccc21	inactive
O=C1C(=O)c2c(nc3ccccn23)-c2ccc([N+](=O)[O-])cc21	inactive
O=C1C(=O)c2c(nc3ccccn23)-c2ccccc21	inactive
O=C1C(=O)c2c(nc3ccc([N+](=O)[O-])cn23)-c2ccccc21	inactive
Cc1cccn2c3c(nc12)-c1ccccc1C(=O)C3=O	inactive
O=C1C(=O)c2c(nc3ccc4ccccc4n23)-c2ccccc21	inactive
